Taken from BigSolDB 2.1.

- condition set: in methanol, 288.15 K
reported property: solubility (mole fraction)
# answer = number (no unit)

Entry COc1ccc(Cl)cc1C(=O)NCCc1ccc(S(=O)(=O)NC(=O)NC2CCCCC2)cc1 : reported solubility (mole fraction) = ?
0.000165

====

- condition set: in isopropanol, 303.15 K
reported property: solubility (mole fraction)

Record request: solubility (mole fraction) value, item COc1ccc(Cl)cc1C(=O)NCCc1ccc(S(=O)(=O)NC(=O)NC2CCCCC2)cc1
0.000207

====

- condition set: in ethyl acetate, 313.15 K
reported property: solubility (mole fraction)
Could you respond with only the numeric value?

For the molecule shown here, COc1ccc(Cl)cc1C(=O)NCCc1ccc(S(=O)(=O)NC(=O)NC2CCCCC2)cc1 , give the reported solubility (mole fraction).
0.000375

====

- condition set: in ethanol, 308.15 K
reported property: solubility (mole fraction)
Reply with just the number.

Request the reported solubility (mole fraction) associated with COc1ccc(Cl)cc1C(=O)NCCc1ccc(S(=O)(=O)NC(=O)NC2CCCCC2)cc1
0.000412

====

- condition set: in ethyl acetate, 293.15 K
reported property: solubility (mole fraction)
Response field accepts a number only; no unit should be typed.

For COc1ccc(Cl)cc1C(=O)NCCc1ccc(S(=O)(=O)NC(=O)NC2CCCCC2)cc1 , what is its reported solubility (mole fraction)?
0.00015

====

- condition set: in n-butanol, 303.15 K
reported property: solubility (mole fraction)
Please reply with the value in numeric form only.

Given the molecule COc1ccc(Cl)cc1C(=O)NCCc1ccc(S(=O)(=O)NC(=O)NC2CCCCC2)cc1 , what is its reported solubility (mole fraction)?
0.000334

====

- condition set: in methanol, 318.15 K
reported property: solubility (mole fraction)
Please reply with the value in numeric form only.

# lookup: solubility (mole fraction) of COc1ccc(Cl)cc1C(=O)NCCc1ccc(S(=O)(=O)NC(=O)NC2CCCCC2)cc1
0.00105

====

- condition set: in n-propanol, 313.15 K
reported property: solubility (mole fraction)

Consider the compound shown here: COc1ccc(Cl)cc1C(=O)NCCc1ccc(S(=O)(=O)NC(=O)NC2CCCCC2)cc1 What is its recorded solubility (mole fraction)?
0.000538

====

- condition set: in n-propanol, 293.15 K
reported property: solubility (mole fraction)
API note: the answer field is a bare number with no unit suffix.

// query solubility (mole fraction) value for entry COc1ccc(Cl)cc1C(=O)NCCc1ccc(S(=O)(=O)NC(=O)NC2CCCCC2)cc1
0.000163

====

- condition set: in acetonitrile, 303.15 K
reported property: solubility (mole fraction)
A bare number is all that is needed in reply.

Report solubility (mole fraction) for COc1ccc(Cl)cc1C(=O)NCCc1ccc(S(=O)(=O)NC(=O)NC2CCCCC2)cc1 please.
0.000163

====

- condition set: in sec-butanol, 308.15 K
reported property: solubility (mole fraction)
Just the number.

I am curious: what solubility (mole fraction) value has been reported for COc1ccc(Cl)cc1C(=O)NCCc1ccc(S(=O)(=O)NC(=O)NC2CCCCC2)cc1 ?
0.000248

====

- condition set: in methyl acetate, 323.15 K
reported property: solubility (mole fraction)
// response body must contain only the number

What solubility (mole fraction) value was documented for this molecule, COc1ccc(Cl)cc1C(=O)NCCc1ccc(S(=O)(=O)NC(=O)NC2CCCCC2)cc1 ?
0.000769

====

- condition set: in methanol, 298.15 K
reported property: solubility (mole fraction)

So what's the measured solubility (mole fraction) for this one? COc1ccc(Cl)cc1C(=O)NCCc1ccc(S(=O)(=O)NC(=O)NC2CCCCC2)cc1
0.000284
